- Tested on: L1210 leukemia ip in BDF1 mice, survival T/C
- TEST NAME: NCI In Vivo Anticancer Drug Screen. Data for tumor model L1210 Leukemia (intraperitoneal) in B6D2F1 (BDF1) mice
- TEST PARAMETERS: endpoint: mean survival time; dose: 400.0 mg/kg/injection; schedule: Q01DX009 (ip); vehicle: gum acacia; higher = longer survival
Inconclusive results and toxic doses are left out.
Provide the recorded T/C for the entries that follow.

As a guide, the following entries are already answered.
CC(C)NC(=O)N(c1ccccc1)c1ccccc1    101 % of control
COc1ccccc1NC(=O)Nc1c(C)cccc1C    90 % of control
O=C(CC(=O)c1ccccc1)Nc1ccccc1    102 % of control
Cc1ccc(NC(=O)Nc2cccc(C(F)(F)F)c2)cc1Cl    91 % of control

Proceeding to the next molecule to report its T/C.
Query :: Tell me the measured T/C of "O=C(O)c1ccc(OCCOc2ccccc2)c(Cl)c1" , please.
Result :: 92 % of control
